# Measurement description: NCI Yeast Anticancer Drug Screen. Data for the mlh1 rad18 strain (AID 175)
# Run conditions: S. cerevisiae mlh1 rad18 strain growth inhibition; at 50.0 µM
Compounds without any hit were thinned out: in the full panel of roughly 79,000, 15% have a hit. Activity calls are given as the source filed them. No stated cut-off is given here; in the data, active means growth inhibition above about 70%; inactive means the rest.
Outcomes: yes (1) (active), no (0) (inactive)

{"Compound": "COc1ccccc1NC(=O)/C(=C/C1CC(=O)NC1=S)C(C)=O (stereo not drawn)", "Assigned label": "no (0)"}
{"Compound": "O=C(c1ccccc1)C(c1ccccc1)n1nc2c(c1-c1ccccc1)CCCC2 (stereo not drawn)", "Assigned label": "yes (1)"}
{"Compound": "C1=Cc2ccccc2Nc2ccccc21", "Assigned label": "no (0)"}

###

# Measurement description: NCI Yeast Anticancer Drug Screen. Data for the cln2 rad14 strain (AID 165);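 further: 0% = growth equal to vehicle treated cultures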
# Run conditions: S. cerevisiae cln2 rad14 strain, at 50.0 µM, stronger effect = higher value
About 79,000 compounds went through this panel and 15% of them were active in at least one assay; those are over-represented in the sample as a whole.

{"Molecule": "CS(=O)(=O)OC1C(OCc2ccccc2)OC(CO)C(O)C1O (stereo not drawn)", "growth inhibition / %": -55.6}
{"Molecule": "O=C(Oc1ccccc1)C(c1ccccc1)c1ccccc1", "growth inhibition / %": -59.7}
{"Molecule": "Cc1nc2ccc(-c3ccccc3)cc2nc1C", "growth inhibition / %": 4.45}
{"Molecule": "COC1(OC)CCCc2c1no[n+]2[O-]", "growth inhibition / %": -16.7}
{"Molecule": "CCOC(=O)/C(C#N)=C(O)\\C(=C\\c1ccc(Cl)cc1)NC(=O)c1ccc(NC(C)=O)cc1", "growth inhibition / %": 9.2}
{"Molecule": "CC(Cl)(CCC(Cl)C(C)(C)Cl)C(=O)CBr (stereo not drawn)", "growth inhibition / %": 91.3}
{"Molecule": "C=CCOC1OC(CO)C(O)C(O)C1O (stereo not drawn)", "growth inhibition / %": 11.5}
{"Molecule": "NC(N)=NOCC(=O)O", "growth inhibition / %": -42.5}
{"Molecule": "O=C=Nc1cc(Cl)ccc1Cl", "growth inhibition / %": -24.4}
{"Molecule": "c1ccc(N=C(Nc2ccccc2)N2CCCC2)cc1", "growth inhibition / %": 5.7}
{"Molecule": "COc1cccc(C(=O)O)c1O", "growth inhibition / %": -8.8}
{"Molecule": "CNC(=O)Nc1ccccc1", "growth inhibition / %": 16.9}
{"Molecule": "CCOC(=O)c1nc(C)oc1C(=O)OCC", "growth inhibition / %": -13.9}
{"Molecule": "CCCC(C)C(=O)OC1CCCCC1C (stereo not drawn)", "growth inhibition / %": -45.6}
{"Molecule": "CCCCC(=O)OCC(=O)[C@]1(O)Cc2c(O)c3c(c(O)c2[C@@H](OC2CC(NC(=O)C(F)(F)F)C(O)C(C)O2)C1)C(=O)c1c(OC)cccc1C3=O (stereo partly drawn)", "growth inhibition / %": 4.9}
{"Molecule": "FC1=C2C3CCC(C3)C2C1(F)F (stereo not drawn)", "growth inhibition / %": 16.9}
{"Molecule": "CCOC(=O)C(C)(OCC)OCC", "growth inhibition / %": -8.55}
{"Molecule": "COc1ccc(C(C)(C)C#N)cc1", "growth inhibition / %": -12.8}
{"Molecule": "N/C(=N\\C(=O)OCCOC(=O)/N=C(/N)c1ccccc1)c1ccccc1", "growth inhibition / %": -20.5}
{"Molecule": "NC(=S)N/N=C\\c1nccc2ccsc12", "growth inhibition / %": -29.9}
{"Molecule": "O=C1NC(=Nc2ccccc2Cl)SC1C(=O)Nc1ccc([N+](=O)[O-])cc1[N+](=O)[O-] (stereo not drawn)", "growth inhibition / %": -28.6}
{"Molecule": "O=C(Nc1ccc(F)c([N+](=O)[O-])c1)Nc1ccccc1C(F)(F)F", "growth inhibition / %": -3.5}
{"Molecule": "NCCCCC(C(=O)NCC(=O)O)N(C(=O)OCc1ccccc1)C(=O)OCc1ccccc1 (stereo not drawn)", "growth inhibition / %": -33.1}
{"Molecule": "CCCCCCCCCCCCCCCCOCC(O)CO (stereo not drawn)", "growth inhibition / %": -5.65}
{"Molecule": "CCOC(=O)C1(C(=O)OCC)OC(=O)NC2=C1CCCC2", "growth inhibition / %": -15.7}
{"Molecule": "Cc1ccc(S(=O)(=O)N/N=C/c2oc(-c3ccncc3)c(-c3ccncc3)c2[N+](=O)[O-])cc1", "growth inhibition / %": 27.8}
{"Molecule": "CCCCCC(O)c1ccc2c(c1)OCO2 (stereo not drawn)", "growth inhibition / %": 2.2}
{"Molecule": "COc1cc(/C=C/C(=O)N[C@@H]2C(=O)N3[C@@H]2SC(C)(C)[C@@H]3C(=O)O)ccc1O", "growth inhibition / %": -1.55}
{"Molecule": "N#CCCC(CC#N)N1CCN(C(CC#N)CCC#N)CC1 (stereo not drawn)", "growth inhibition / %": -6.3}
{"Molecule": "CC(=O)OCc1ccc(Cl)cc1Cl", "growth inhibition / %": 7.4}
{"Molecule": "NC(CSSCC(N)Cc1ccccc1)Cc1ccccc1 (stereo not drawn)", "growth inhibition / %": 14.8}
{"Molecule": "Cc1cccc(C(C)(C)C)c1NC(=O)C(=O)C(C(=O)/C=C\\c1ccccc1)C1OC(=O)c2ccccc21 (stereo not drawn)", "growth inhibition / %": 30.4}
{"Molecule": "CC(C)c1cccc(C(C)(C)C)n1", "growth inhibition / %": -3.65}
{"Molecule": "CCOC(=O)C[n+]1cccc(Br)c1", "growth inhibition / %": -6.5}
{"Molecule": "CCOC(=O)C(C)c1nc2cc(N3CCOCC3)c(F)cc2[nH]c1=O (stereo not drawn)", "growth inhibition / %": 28.6}
{"Molecule": "CC(C)NC(=O)CS(=O)(=O)c1ccc(N)cc1", "growth inhibition / %": -0.3}
{"Molecule": "CC1ON2CCCC2[C@H]1C(=O)N1C2CC3CCC2(CS1(=O)=O)C3(C)C (stereo partly drawn)", "growth inhibition / %": -0.35}
{"Molecule": "O/N=C1/CC2CCCCC2CC1(O)c1ccccc1 (stereo not drawn)", "growth inhibition / %": 18.4}

###

# Measurement description: NCI Yeast Anticancer Drug Screen. Data for the rad50 strain (AID 155);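 further: 0% = growth of vehicle-only cultures of the same strain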
# Run conditions: S. cerevisiae rad50 strain growth inhibition; at 50.0 µM; stronger effect = higher value
This is part of a sample that, as a whole, favours compounds with a hit. Of some 79,000 tested, about 15% had one in any assay.
growth inhibition values, listed per item
Attribute measured: growth inhibition (%)

{"Molecule": "Nc1nc(N)c2nc(-c3ccc(O)cc3)c(-c3ccc(O)cc3)nc2n1", "Units label": "%", "Recorded result": -15.5}
{"Molecule": "c1ccc2c3c([nH]c2c1)CCCCCC3", "Units label": "%", "Recorded result": 19.2}
{"Molecule": "COc1ccc(C2=NOC3COC4C=CC=CC4OCC23)cc1 (centres undefined)", "Units label": "%", "Recorded result": -11.4}
{"Molecule": "O=c1[nH]c(=O)n(COCCO)cc1-c1ccccc1", "Units label": "%", "Recorded result": -8.75}

###

# Measurement description: NCI Yeast Anticancer Drug Screen. Data for the bub3 strain (AID 167)
# Run conditions: S. cerevisiae bub3 mutant strain, at 50.0 µM, stronger effect = higher value
Compounds without any hit were thinned out: in the full panel of roughly 79,000, 15% have a hit.
growth inhibition values, listed per item

{"Compound": "Nc1ccnc2cc(Cl)ccc12", "Units label": "%", "growth inhibition": -4.05}
{"Compound": "C[N+](C)(C)CCCCCC[N+](C)(C)C", "Units label": "%", "growth inhibition": -31.7}
{"Compound": "Cc1ccc(S(=O)(=O)Nn2c(O)c(C#N)c(-c3ccc(Cl)cc3)c(C#N)c2=O)cc1", "Units label": "%", "growth inhibition": 15.5}
{"Compound": "CCOP(=O)(c1ccccc1)C(C)C (stereo unspecified)", "Units label": "%", "growth inhibition": -0.65}
{"Compound": "CC1CN(CCO)C(C)(C)C1 (stereo unspecified)", "Units label": "%", "growth inhibition": -9.2}
{"Compound": "CCc1ccc(CC)c(OC)c1", "Units label": "%", "growth inhibition": -11.1}
{"Compound": "CC(=O)NC(CCCCN)C(=O)NCc1ccccc1 (stereo unspecified)", "Units label": "%", "growth inhibition": -19}
{"Compound": "Cc1cc(C)c(N=Nc2cc(C)c(N)cc2N)c(S(=O)(=O)O)c1", "Units label": "%", "growth inhibition": 7.3}
{"Compound": "NC(=O)NC(Cc1ccccc1)(C(=O)O)c1ccccc1 (stereo unspecified)", "Units label": "%", "growth inhibition": 24.4}
{"Compound": "CN(C)Cc1c[nH]c2nc[nH]c(=O)c12", "Units label": "%", "growth inhibition": -9.5}
{"Compound": "COc1cc2c(c(O)c1C)C(=O)CC(c1ccccc1)O2 (stereo unspecified)", "Units label": "%", "growth inhibition": -4.25}
{"Compound": "CCC(=O)c1c2c(cc3ccccc13)CCCC2", "Units label": "%", "growth inhibition": 38.2}
{"Compound": "O=[N+]([O-])c1ccc(-c2nnc(C34CC5CC(CC(C5)C3)C4)o2)cc1", "Units label": "%", "growth inhibition": -11.2}
{"Compound": "CC(C)CCC(C)(C)O", "Units label": "%", "growth inhibition": 9.95}
{"Compound": "Nc1ncnc2c1ncn2CCCCCO", "Units label": "%", "growth inhibition": 3.45}
{"Compound": "CCOC(=O)C1NC(=O)C(C(=O)OCC)C1C(C)C (stereo unspecified)", "Units label": "%", "growth inhibition": -4.05}

Data provenance is PubChem BioAssay (NCI).
